Data provenance is patent US20230174484A1.

Each entry below carries its recorded pKi.
# subject.of.test: human GPR39 receptor (Homo sapiens)
# Construct: PC3 Cells, Expressing the Endogenous Human GPR39 Receptor; endogenous in cells
# assay.protocol: Measurement of intracellular calcium response in PC3 cells (FLIPR), antagonism of the C3 agonist response
# measurement.context: functional pKi (modified Cheng-Prusoff), inhibition of the C3 (TC-G 1008) response at EC90, 30 μM ZnCl2, read-out: fpKi activity
# Protocol: Human prostate adenocarcinoma (PC3) cells endogenously expressing human GPR39 receptor were seeded into black walls clear-base 384-well plates at a density of 7,500 cells per well in DM EM (Low Glucose) supplemented with 10% heat-inactivated foetal bovine serum and 1% of Pen/Strep and grown overnight at 37° C., 5% CO2. […] Fluorescence was monitored throughout the run assay. […]
pKi: −log10 of the molar value.

Reference set, count: 3
CCCN1CCN(C(=O)c2ccc(NC(=O)C3CC3)cc2-c2ccccc2)CC1
5.20 to 5.90
CC1CC(C)CN(c2cc(NC(=O)C3CC3)ccc2C(=O)N2CCN(C)CC2c2ccccc2)C1 (single isomer, unassigned) [Example 68a]
≥ 7.30
CCCN1CCN(C(=O)c2ccc(NC(=O)C3CC3)cc2N2CCC(F)(F)CC2)CC1
5.20 to 5.90

## Input Query pKi for O=C(Nc1ccc(C(=O)N2CCN(Cc3ccc(F)cc3)CC2)c(N2CCCCCC2)c1)C1CC1
## Output 6.60 to 7.20

## Input Answer with the recorded pKi for the molecule listed here: O=C(Nc1ccc(C(=O)N2CCS(=O)(=O)CC2)c(N2CC3CCC2C3)c1)C1CC1 (centres unmarked)
## Output 6.00 to 6.50

## Input Give the reported pKi for this molecule. O=C(Nc1ccc(C(=O)N2CCN(Cc3ccccc3)CC2)c(N2CCCCCC2)c1)C1CC1
## Output 6.60 to 7.20

## Input Give the reported value of pKi for this record: CCCN1CCN(C(=O)c2ccc(NC(=O)c3ccccc3)cc2N2CCCCCC2)CC1
## Output 5.20 to 5.90

## Input Input CC1CN(C)CCN1C(=O)c1ccc(NC(=O)C2CC2)cc1N1CCCCCC1 (centres unmarked) , output reported pKi.
## Output 6.00 to 6.50

---

# subject.of.test: human GPR39 receptor (Homo sapiens, UniProt O43194)
# Construct: PC3 Cells, Expressing the Endogenous Human GPR39 Receptor; endogenous in cells
# Sequence (O43194 1-453): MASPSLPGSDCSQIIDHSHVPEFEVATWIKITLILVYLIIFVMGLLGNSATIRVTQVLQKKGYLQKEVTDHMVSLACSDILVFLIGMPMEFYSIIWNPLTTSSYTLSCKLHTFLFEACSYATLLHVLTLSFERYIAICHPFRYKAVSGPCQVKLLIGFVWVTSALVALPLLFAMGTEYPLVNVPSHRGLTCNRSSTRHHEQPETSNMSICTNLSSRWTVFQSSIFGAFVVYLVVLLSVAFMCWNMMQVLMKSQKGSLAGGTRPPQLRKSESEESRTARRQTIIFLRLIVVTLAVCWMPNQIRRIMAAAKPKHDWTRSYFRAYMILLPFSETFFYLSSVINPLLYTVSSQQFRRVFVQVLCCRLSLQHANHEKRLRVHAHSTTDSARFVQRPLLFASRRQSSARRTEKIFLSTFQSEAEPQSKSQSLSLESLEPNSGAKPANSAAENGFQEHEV
# assay.protocol: Measurement of intracellular calcium response in PC3 cells (FLIPR), antagonism of the C3 agonist response
# measurement.context: functional pKi (modified Cheng-Prusoff), inhibition of the C3 (TC-G 1008) response at EC90, 30 μM ZnCl2, read-out: fpKi activity
pKi: −log10 of the molar value.
experimental.readout: pKi

CN1CCN(C(=O)c2ccc(NC(=O)C3CC3)cc2N2CCCC2)C(c2cnn(C)c2)C1 (racemic) [Example 87]
6.00 to 6.50
Cc1nnc(-c2ccc(C(=O)N3CCN(C)CC3c3ccccc3)c(N3CCCC3)c2)[nH]1 (single isomer, unassigned) [Example 150b]
5.20 to 5.90
O=C(Nc1ccc(C(=O)N2CCN(Cc3cccnc3)CC2)c(N2CCCCCC2)c1)C1CC1 [Example 32]
6.00 to 6.50

## Input Let me know recorded pKi for CN1CCN(C(=O)c2ccc(NC(=O)C3CC3)cc2N2CCCC2)C(c2cccs2)C1 (racemic) [Example 86c] , thanks.
## Output ≥ 7.30

## Input Fill in reported pKi for this entry: CN1CCN(C(=O)c2ccc(NC(=O)C3CC3)cc2N2CCCC2)C(c2ccccc2)C1 (single isomer, unassigned) [Example 62a]
## Output ≥ 7.30

## Input Complete the entry with pKi for CCCN1CCn2c(cnc2-c2ccc(NC(=O)C3CC3)cc2N2CCCCCC2)C1 [Example 105]
## Output 6.60 to 7.20

## Input Identify pKi associated with the molecule CN1CCN(C(=O)c2ccc(NC(=O)C3CC3)cc2N2CCCC2)C(c2cccc(Cl)c2)C1 (single isomer, unassigned) [Example 171b]
## Output ≥ 7.30

---

molecules and their reported pKi
# subject.of.test: human GPR39 receptor (Homo sapiens)
# Construct: PC3 Cells, Expressing the Endogenous Human GPR39 Receptor; endogenous in cells
# assay.protocol: Measurement of intracellular calcium response in PC3 cells (FLIPR), antagonism of the C3 agonist response
# measurement.context: functional pKi (modified Cheng-Prusoff), inhibition of the C3 (TC-G 1008) response at EC90, 30 μM ZnCl2, read-out: fpKi activity
pKi: −log10 of the molar value.

CCCN1CCN(C(=O)c2ccc(NC(=O)C3CC3)cc2N2CCCCCC2)C(c2ccccc2)C1 (single isomer, unassigned) [Example 73a]
≥ 7.30

## Input For the molecule CCCN1CCN(C(=O)c2ccc(NC(=O)C3CC3)cc2N2CCC(c3ccccc3)C2)CC1 (stereo not shown) , give its measured pKi value.
## Output 6.00 to 6.50

## Input Hello, please tell me recorded pKi for this one: CCCN1CCN(C(=O)c2ccc(NC(=O)C3CC3)cc2N2CCCOCC2)CC1
## Output 6.00 to 6.50

## Input Please report the measured pKi for O=C(Nc1ccc(C(=O)N2CC[S+]([O-])CC2c2ccccc2)c(N2CCCC2)c1)C1CC1 (racemic)
## Output 5.20 to 5.90

---

Reported Ki is given for each of the following compounds.
# subject.of.test: human GPR39 receptor (Homo sapiens)
# Construct: PC3 Cells, Expressing the Endogenous Human GPR39 Receptor; endogenous in cells
# assay.protocol: Measurement of intracellular calcium response in PC3 cells (FLIPR), antagonism of the C3 agonist response
# measurement.context: functional pKi (modified Cheng-Prusoff), inhibition of the C3 (TC-G 1008) response at EC90, 30 μM ZnCl2, read-out: fpKi activity
# Procedure: Human prostate adenocarcinoma (PC3) cells endogenously expressing human GPR39 receptor were seeded into black walls clear-base 384-well plates at a density of 7,500 cells per well in DM EM (Low Glucose) supplemented with 10% heat-inactivated foetal bovine serum and 1% of Pen/Strep and grown overnight at 37° C., 5% CO2. […] Fluorescence was monitored throughout the run assay. […]

CN1CCn2c(cnc2-c2ccc(NC(=O)C3CC3)cc2N2CCCCCC2)C1
63.1 to 251 nM
CCCN1CCN(C(=O)c2ccc(NC(=O)C3CC3)cc2N2CCCCCC2)C(c2ccccc2)C1 (single isomer, unassigned) [Example 73b]
1260 to 6310 nM
O=C(Nc1ccc(C(=O)N2CCS(=O)(=O)CC2)c(N2CCC(C(F)(F)F)C2)c1)C1CC1 (single isomer, unassigned) [Example 183a]
≤ 50.1 nM
O=C(Nc1ccc(C(=O)N2CCS(=O)(=O)CC2)c(N2CCC(C(F)(F)F)C2)c1)C1CC1 (racemic) [Example 183c]
63.1 to 251 nM

## Input For the compound O=C(NCc1cccnc1)c1ccc(NC(=O)C2CC2)cc1N1CCCCCC1 , give its measured Ki value.
## Output 1260 to 6310 nM

## Input Provide measured Ki value, entry: CN1CCN(C(=O)c2ccc(NC(=O)C3CC3)cc2N2CCCC2)C(c2ccncc2Cl)C1 (racemic)
## Output 63.1 to 251 nM

## Input Return value of Ki for input CN1CCN(C(=O)c2ccc(NC(=O)C3CC3)cc2N2CCC(F)(F)C2)C(c2ccccc2)C1 (racemic) [Example 202c] , no commentary.
## Output 63.1 to 251 nM

## Input For CN1CCN(C(=O)c2ccc(NC(=O)C3CC3)cc2N2CCCC2)C(c2ccccc2)C1 (racemic) [Example 62c] , write its Ki.
## Output 63.1 to 251 nM

## Input Return the recorded Ki value; entry: CN1CCN(C(=O)c2ccc(-c3nnc(C4CC4)[nH]3)cc2N2CCCC2)C(c2ccccc2)C1 (racemic) [Example 151c]
## Output 63.1 to 251 nM

## Input Look up and report measured Ki for this entry: O=C(c1ccc(-c2nnc(C3CC3)[nH]2)cc1N1CCCC1)N1CCC(C(F)(F)F)CC1
## Output 63.1 to 251 nM

## Input Report Ki, nothing else, for this compound: O=C(Nc1ccc(C(=O)N2CCS(=O)(=O)CC2)c(N2CCCC(C(F)(F)F)C2)c1)C1CC1 (racemic) [Example 185c]
## Output 63.1 to 251 nM

## Input Read off the recorded Ki for CN1CCN(C(=O)c2ccc(NC(=O)C3CC3)cc2-n2cc(C(F)(F)F)cn2)C(c2ccccc2)C1 (centres unmarked)
## Output 316 to 1000 nM

## Input Return Ki (reported value) for this compound: CN1CCN(c2ccc(CNC(=O)c3ccc(NC(=O)C4CC4)cc3N3CCCCCC3)cc2)CC1
## Output 1260 to 6310 nM

## Input Note Ki for the compound shown: CN1CCN(C(=O)c2ccc(-c3nnc(C4CC4)[nH]3)cc2N2CCCC2)C(c2ccccc2)C1 (single isomer, unassigned) [Example 151a]
## Output 63.1 to 251 nM

## Input # return recorded Ki for input CC1CC(C)CN(c2cc(NC(=O)C3CC3)ccc2C(=O)N2CCN(C)CC2c2ccccc2)C1 (single isomer, unassigned) [Example 68b]
## Output 316 to 1000 nM

## Input In one line, give reported Ki of the entry CN(C)CCSc1nnc(-c2ccc(NC(=O)C3CC3)cc2N2CCCCCC2)n1C .
## Output 1260 to 6310 nM
